System: HOP-62
Experiment: NCI tumour cell line growth inhibition, 48 h
Active and inactive are the calls of the source. Cut-off read from the data, not from the text of the source: active = GI50 up to about 1.1 µM and inactive = higher.
Field 'call' accepts active, inactive

// param item: "C1CCN(c2nsc(N3CCCCC3)n2)CC1" ; yields the recorded call
inactive

Repeat for the following compound: "COc1ccc(/C=C2\CCS(=O)(=O)c3ccccc3C2=O)cc1OC"
inactive

Repeat for the following compound: "CC(=O)c1ccc(Nc2c3c(nc4ccccc24)CCCC3)cc1"
inactive

Repeat for the following compound: "COc1ccc2c(c1)c(=O)c1c(NCCCN(C)C)ccc3ncn2c31"
active

Repeat for the following compound: N#CC1Cc2cc3c(cc21)OCO3 (stereo not given)
inactive

Repeat for the following compound: "[N-]=[N+]=C(C(=O)CN1CCCC1=O)S(=O)(=O)c1ccccc1"
inactive

Repeat for the following compound: CC1=CC(=O)CCC2(C)C1CC[C@@H]2OC=O (stereo not given in full)
inactive

Repeat for the following compound: O=C1C2=C(c3ccccc31)C(c1cccc(Cl)c1)NC(S)=N2 (stereo not given)
inactive

Repeat for the following compound: "COc1ccc(OCc2nc3cc(C(F)(F)F)ccc3nc2-c2ccccc2)cc1"
inactive

Repeat for the following compound: "C=CCN1C(=O)C=C(c2ccccc2)n2ncc3cccc1c32"
inactive

Repeat for the following compound: "CC1=C(C(=O)Nc2cc(F)c(F)cc2F)C(c2ccc(N(C)C)cc2)C(C(=O)Nc2cc(F)c(F)cc2F)=C(C)N1"
inactive

Repeat for the following compound: "Nc1nnc2nc(CC(=O)/C=C/c3ccccc3)c(=O)[nH]n12"
inactive

Repeat for the following compound: "Nc1nc(Sc2ccc([N+](=O)[O-])c3nonc23)c2nc[nH]c2n1"
active

Repeat for the following compound: "Cc1ccc(Cc2cc(N3CCN(c4cccc(Cl)c4)CC3)nnc2C)cc1"
inactive

Repeat for the following compound: CCOC(=O)C(O)(NC(=O)c1ccc(F)cc1)C(F)(F)F (stereo not given)
inactive

Repeat for the following compound: "C=CCN1C(=O)CS/C1=N\NC(=O)c1c(C)nc2sccn12"
inactive

Repeat for the following compound: COC(=O)C(C(=O)C(=O)Nc1ccccc1C#N)c1nc2ccc([N+](=O)[O-])cc2nc1O (stereo not given)
inactive

Repeat for the following compound: CC(C)(C)OC(=O)C1CCC/C1=N/Nc1ccc([N+](=O)[O-])cc1[N+](=O)[O-] (stereo not given)
inactive

Repeat for the following compound: "Clc1ccc2c(c1)[nH]c1c2nc2sccn21"
inactive

Repeat for the following compound: O=C(O)C1CCc2ccc3ccccc3c2C1c1cccc2ccccc12 (stereo not given)
inactive

Repeat for the following compound: NC(=O)N/N=C(/CC1C(=O)Oc2ccccc21)c1ccccc1O (stereo not given)
inactive

Repeat for the following compound: "COCN1C(=O)[C@@H]2C[C@@H](O)CN2C(=O)c2ccccc21"
inactive

Repeat for the following compound: "COC(=O)c1cc2c3ccccc3n(C(C)=O)c2cn1"
inactive

Repeat for the following compound: "C[N+](C)(C)CCCSc1nc2ccccc2[nH]1"
inactive

Repeat for the following compound: CC(=O)OC1C(O)C(C)OC(OC2C(OC(=O)C3CCC4C(C3)OC3(CC(OC(=O)/C=C/c5ccccc5)C(C)CO3)C43CO3)OC(C)C(O)C2OC(C)=O)C1O (stereo not given)
active

Repeat for the following compound: "C[N+]1=c2c3cccc4cccc(c(=O)n2CC1)c43"
inactive

Repeat for the following compound: "COc1c(OC)c(O)c2c(=O)c(OC)c(-c3ccc4c(c3)OCO4)oc2c1O"
inactive

Repeat for the following compound: "O=C(c1ccccn1)c1nnn2ccccc12"
inactive

Repeat for the following compound: "Clc1ccc(OCc2nnc3sc(-c4ccc(-c5ccc(Cl)cc5Cl)o4)nn23)cc1"
inactive

Repeat for the following compound: N#CC(N)(C(=O)C(=O)NCCCNC(=O)C(=O)C(N)(C#N)c1ccc(Cl)cc1)c1ccc(Cl)cc1 (stereo not given)
inactive

Repeat for the following compound: "CN1CCCN(C)C1c1cc([N+](=O)[O-])ccc1O"
inactive

Repeat for the following compound: "N#C/C(=C\Nc1ccccn1)C(=O)c1ccco1"
inactive

Repeat for the following compound: "CSc1n/c(=N\c2ccccc2)sn1-c1ccccc1"
inactive

Repeat for the following compound: CC1CNc2ccccc2N=C1NN (stereo not given)
inactive

Repeat for the following compound: CC(C)C(NCc1c2ccccc2[n+](C)c2ccccc12)C(=O)O (stereo not given)
inactive

Repeat for the following compound: CC1=CCC2(C#N)CCC1C2=O (stereo not given)
inactive

Repeat for the following compound: "CCOc1ccc(/N=N/c2c(-c3ccccc3)nn(C(=O)CC(=O)Nc3cccc(C)c3)c2-c2ccccc2)cc1"
inactive

Repeat for the following compound: "CC(/C=N/N=C(N)N)=N\N=C(N)N"
inactive

Repeat for the following compound: "Cc1nc(Cl)nc(Cl)c1C"
inactive

Repeat for the following compound: C[C@@]1(O)C2C3CC4C5C3C1[C@](O)(C42)[C@H]5Br (stereo not given in full)
inactive

Repeat for the following compound: "CCn1c(-c2ccccc2)cs/c1=N\C(P(=O)(O)O)P(=O)(O)O"
inactive

Repeat for the following compound: CC1=COC(C)(C=C(C#N)C#N)CC1 (stereo not given)
inactive

Repeat for the following compound: "CC(C)NC(=O)OCc1c(COC(=O)NC(C)C)c(-c2cc[n+](COC(=O)C3CCCCC3)cc2)n2c1CCC2"
inactive

Repeat for the following compound: "N/C(=N\c1ccc(Cl)cc1)NS(=O)(=O)c1ccc(-c2ncccc2C(F)(F)F)s1"
inactive

Repeat for the following compound: "Cc1nnc(N)nc1/C=C\c1cccs1"
inactive
